Hello, the source for this data is paper PMC3164656, in case you need it.

Target: BC2L-C-ct (Burkholderia cenocepacia, UniProt B4EH86)
Sequence (B4EH86 158-272): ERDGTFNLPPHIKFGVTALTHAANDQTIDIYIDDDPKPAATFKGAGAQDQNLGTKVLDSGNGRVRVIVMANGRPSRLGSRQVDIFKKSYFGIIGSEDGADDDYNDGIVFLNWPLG
Assay: Isothermal titration microcalorimetry, binding of saccharides to BC2L-C-ct
Settings: ITC, 25°C
Short version: -TΔS at least 7 kcal/mol is yes (1), less is no (0).

These recorded examples may help you get a feel for the data.
1. OC[C@H]1OC(O)[C@@H](O)[C@@H](O)[C@@H]1O (some centres unmarked) :: yes (1)
2. C=CCO[C@H]1O[C@H]([C@@H](O)CO)[C@@H](O)[C@H](O[C@H]2O[C@H]([C@@H](O)CO)[C@@H](O)[C@H](O)[C@@H]2O)[C@@H]1O :: no (0)
3. OC[C@H]1O[C@H](OC[C@H]2OC(O)[C@@H](O)[C@@H](O[C@H]3O[C@H](CO)[C@@H](O)[C@H](O)[C@@H]3O)[C@@H]2O)[C@@H](O)[C@@H](O)[C@@H]1O (some centres unmarked) :: yes (1)

Turning now to a further compound:
Does CO[C@H]1O[C@H]([C@@H](O)CO)[C@@H](O)[C@H](O)[C@@H]1O have a reported -TΔS of at least 7 kcal/mol? no (0)
